Values from paper PMC6050537

molecular target: Full length IDOL (1–445) (UniProt Q8WY64); experiment: MST; Monolith NT.115; 6× His IDOL labelled with NT-647-NHS dye at 50 nM, peptides titrated; 10 mM HEPES, 300 mM NaCl, 1 mM TCEP, 0.05% TWEEN-20, pH 8.0, 5% DMSO
PROPERTY: pKd
Here pKd is given on a logarithmic scale as minus log10 of the concentration in mol/L.

Prompt line: Consider the binder CFFLYT (cyclic backbone (cyclo-)) [cyclo-CFFLYT] and give its recorded pKd.
Response line: 4.41
